System: Mythimna separata
Experiment Summary: Larvicidal activity against fourth-instar larval stage of Mythimna separata (Oriental armyworm) in compound-pretreated corn leaves assessed as mortality at 100 mg/kg at 25 +/-1 degC measured after 4 days
Format: functional
Measure Name: mortality at 100 mg/kg (%)
// return numeric value only (unit: %, not printed)

Cc1cc(C)cc(C(=O)N(NC(=O)c2ccccc2)C(C)(C)C)c1 : 100

So for "Cc1cc(C)cc(C(=O)N(N(SSN(C(=O)c2ccccc2)N(C(=O)c2cc(C)cc(C)c2)C(C)(C)C)C(=O)c2ccccc2)C(C)(C)C)c1" , the logged mortality at 100 mg/kg turned out to be 70

So for "Cc1cc(C)cc(C(=O)N(N(SSN(C(=O)c2ccc(Cl)cc2)N(C(=O)c2cc(C)cc(C)c2)C(C)(C)C)C(=O)c2ccc(Cl)cc2)C(C)(C)C)c1" , the logged mortality at 100 mg/kg turned out to be 90

So for "CC(C)(C)N(C(=O)c1ccccc1)N(SSN(C(=O)c1ccccc1)N(C(=O)c1ccccc1)C(C)(C)C)C(=O)c1ccccc1" , the logged mortality at 100 mg/kg turned out to be 85

So for "Cc1cccc(C(=O)N(NC(=O)c2ccccc2)C(C)(C)C)c1" , the logged mortality at 100 mg/kg turned out to be 50

----------
System: Mythimna separata
Experiment Summary: Larvicidal activity against fourth-instar larval stage of Mythimna separata (Oriental armyworm) in compound-pretreated corn leaves assessed as mortality at 30 mg/kg at 25 +/-1 degC measured after 4 days
Type: functional
Measure Name: mortality at 30 mg/kg
Field: value (include unit after the number)

Worked set:
CCc1ccc(C(=O)NN(C(=O)c2cc(C)cc(C)c2)C(C)(C)C)cc1 [TEBUFENOZIDE] : 100%
CCc1ccc(C(=O)N(SSN(C(=O)c2ccc(CC)cc2)N(C(=O)c2cc(C)cc(C)c2)C(C)(C)C)N(C(=O)c2cc(C)cc(C)c2)C(C)(C)C)cc1 : 100%
CC(C)(C)N(NC(=O)c1ccc(Cl)cc1)C(=O)c1ccccc1 [HALOFENOZIDE] : 95%

Now, please, on to the next molecule.
So for "CC(C)(C)N(C(=O)c1ccccc1)N(SSN(C(=O)c1ccc(Cl)cc1)N(C(=O)c1ccccc1)C(C)(C)C)C(=O)c1ccc(Cl)cc1" , the logged mortality at 30 mg/kg turned out to be 85%

----------
Listing: mortality at 5 mg/kg of selected compounds
Tested on: Mythimna separata
Experiment Summary: Larvicidal activity against fourth-instar larval stage of Mythimna separata (Oriental armyworm) in compound-pretreated corn leaves assessed as mortality at 5 mg/kg at 25 +/-1 degC measured after 4 days
Format: functional
Field: value (include unit after the number)

Worked set:
CCCCSSN(C(=O)c1cccc(OC)c1C)N(C(=O)c1cc(C)cc(C)c1)C(C)(C)C : 100%
CCCCSSN(C(=O)c1ccc(CC)cc1)N(C(=O)c1cc(C)cc(C)c1)C(C)(C)C : 100%
CCCSSN(C(=O)c1ccc(Cl)cc1)N(C(=O)c1ccccc1)C(C)(C)C : 20%
CCCSSN(C(=O)c1cccc(OC)c1C)N(C(=O)c1cc(C)cc(C)c1)C(C)(C)C : 100%
CCCSSN(C(=O)c1ccc(CC)cc1)N(C(=O)c1cc(C)cc(C)c1)C(C)(C)C : 100%

So for CC(C)(C)N(NC(=O)c1ccc(Cl)cc1)C(=O)c1ccccc1 [HALOFENOZIDE] , the logged mortality at 5 mg/kg turned out to be 70%
